tested on: MOLT-4; experiment: NCI tumour cell line growth inhibition, 48 h
Calls of active or inactive are those of the source. No stated cut-off is given here; in the data, active = GI50 up to about 1.1 µM and inactive = higher.
measured_property: GI50

# get_value(readout= GI50, system= MOLT-4) for `CCN(CC)CCNc1ccc([N+](=O)[O-])c2nc3ccc(OC)cc3c(N)c12` 0.301 µM (active)

Now consider `O=c1[nH]c2ccccc2n1CCCN1CCC(n2c(=O)[nH]c3cc(Cl)ccc32)CC1` and answer again. 13.9 µM (inactive)

Please give the result for `COc1ccc2cc(CNCCCCCCCCCCCCNCc3ccc4cc(OC)ccc4c3)ccc2c1` too. 21.5 µM (inactive)

Same again, this time with `O=c1nc(N2CCCC2)nc(N2CCCC2)s1` > 100 µM (inactive)

* * *

system: PC-3; experiment: NCI tumour cell line growth inhibition, 48 h
Calls of active or inactive are those of the source. Rule as the data show it: active = GI50 up to about 1.1 µM and inactive = higher.
// classify into true (active), false (inactive)

Example entries and their recorded answers appear below.
>  <compound>
COc1cccc(-c2cc(O)c3cc(N4CCOCC4)ccc3n2)c1

>  <assigned_label>
true

$$$$
>  <compound>
Cc1cc(S(=O)(=O)Nc2nc(N)n(C)n2)c(S)cc1Cl

>  <assigned_label>
false

$$$$
>  <compound>
COC(=O)C1(c2cc3ccccc3n2S(=O)(=O)c2ccccc2)CC2C=CC1NC2 (stereo not given)

>  <assigned_label>
false

$$$$
>  <compound>
Cc1cc2c(cc1-c1cc3c(cc1C)C(C(C)C)=C(O)C(=O)/C3=C\Nc1cccc3c(N)cccc13)/C(=C/Nc1cccc3c(N)cccc13)C(=O)C(O)=C2C(C)C

>  <assigned_label>
false

$$$$
>  <compound>
O=NN(CCCl)C(=O)NC1CCC(=O)NC1=O (stereo not given)

>  <assigned_label>
false

$$$$
>  <compound>
COC12OC3CC4(C)C(=CC3OC(OC(C)C1O)C2O)CCC1C4CCC2(C)C(c3ccc(=O)oc3)CCC12O (stereo not given)

>  <assigned_label>
true

$$$$

GET /call?item= `CC1=Nc2c(C#N)ncn2N=C(C)C1` returns the recorded outcome of this test. false

Let us now turn to `O=C1C(NCCc2ccc(O)c(O)c2)=CC(=O)c2ncccc21` false

Try this compound too: COC(=O)C1=COC2OC3CC1C2C(C)O3 (stereo not given) false

Likewise for `C[C@H]1CC[C@H](NC(=O)N(CCCl)N=O)CC1` ? false

* * *

tested on: NCI/ADR-RES; test: NCI tumour cell line growth inhibition, 48 h
Calls of active or inactive are those of the source. Cut-off read from the data, not from the text of the source: active = GI50 up to about 1.1 µM and inactive = higher.
measured_property: GI50

The cases that follow already have their GI50 on record.
>  <compound>
CC(=O)C1=C(C)N(c2ccc(C)cc2)C2(O)C=CC(O)=C3C(=O)c4ccccc4C(=O)C312 (stereo not given)

>  <endpoint_result>
3.78 µM (inactive)

$$$$
>  <compound>
COc1ccc(/C=C2\C[C@H]3[C@@H]4CCC5=C[C@@H](N6CCCC6)CC[C@]5(C)[C@H]4CC[C@]3(C)[C@H]2O)cc1

>  <endpoint_result>
4.39 µM (inactive)

$$$$
>  <compound>
S=P(N1CC1)(N1CC1)N1CC1 [THIOTEPA]

>  <endpoint_result>
79.1 µM (inactive)

$$$$

May I ask what GI50 has been recorded for `COc1cc[n+](C)cc1` ? > 100 µM (inactive)

Here is the next compound: `COc1cccc(-c2cc(O)c3cc(N4CCOCC4)ccc3n2)c1` 0.0845 µM (active)
